pKi: −log10 of the molar value.
Reported pKi values, Muscarinic acetylcholine receptor M2 (Rattus norvegicus).

QUERY: For the compound shown here, c1ccc2nc(N3CCNCC3)ccc2c1 [2-Piperazin-1-yl-quinoline (Quipazine)] , give the reported pKi.
RESULT: < 5.00

QUERY: And Cc1cccc2ccc(N3CCNCC3)nc12 [QUIPAZINE,8-Me] ?
RESULT: < 5.00

----------
target: Gamma-aminobutyric acid receptor subunit alpha-1 (Rattus norvegicus, UniProt P62813)
Sequence (P62813 whole entry): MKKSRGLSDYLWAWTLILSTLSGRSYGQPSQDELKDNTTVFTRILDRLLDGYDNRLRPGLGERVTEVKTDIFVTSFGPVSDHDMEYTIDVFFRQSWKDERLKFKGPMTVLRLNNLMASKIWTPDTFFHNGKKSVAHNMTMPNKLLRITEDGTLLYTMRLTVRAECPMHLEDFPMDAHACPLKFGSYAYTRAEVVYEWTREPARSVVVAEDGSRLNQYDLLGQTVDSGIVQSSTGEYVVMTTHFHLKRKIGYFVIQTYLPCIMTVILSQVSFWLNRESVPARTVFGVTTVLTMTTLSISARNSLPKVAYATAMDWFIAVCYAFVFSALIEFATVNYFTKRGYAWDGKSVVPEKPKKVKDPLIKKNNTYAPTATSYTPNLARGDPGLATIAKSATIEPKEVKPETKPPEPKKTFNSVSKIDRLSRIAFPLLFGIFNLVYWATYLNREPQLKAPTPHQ
measuredAttribute: Ki

QUERY: For the compound shown here, Cc1cccc2ccc(N3CCNCC3)nc12 , give the reported Ki.
RESULT: > 10 µM

----------
target: 5-hydroxytryptamine receptor 2A (Rattus norvegicus)
Sequence (P14842 whole entry): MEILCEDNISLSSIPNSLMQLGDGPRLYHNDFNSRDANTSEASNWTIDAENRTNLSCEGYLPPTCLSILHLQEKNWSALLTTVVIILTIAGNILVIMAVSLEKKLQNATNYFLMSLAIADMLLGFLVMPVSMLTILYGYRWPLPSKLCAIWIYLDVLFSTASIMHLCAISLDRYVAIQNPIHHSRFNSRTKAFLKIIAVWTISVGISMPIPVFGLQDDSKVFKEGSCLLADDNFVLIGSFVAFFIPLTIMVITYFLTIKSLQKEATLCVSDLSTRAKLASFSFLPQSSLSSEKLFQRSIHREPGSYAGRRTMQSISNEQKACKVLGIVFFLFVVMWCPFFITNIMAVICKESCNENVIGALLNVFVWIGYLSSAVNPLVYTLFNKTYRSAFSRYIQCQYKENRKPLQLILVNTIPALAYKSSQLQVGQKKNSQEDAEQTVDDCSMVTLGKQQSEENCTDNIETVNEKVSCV
I'd be grateful if you could share measured Ki for these entries.

QUERY: For the compound shown here, c1ccc2nc(N3CCNCC3)ccc2c1 [2-Piperazin-1-yl-quinoline (Quipazine)] , give the reported Ki.
RESULT: 180 nM

QUERY: And Cc1cccc2ccc(N3CCNCC3)nc12 [QUIPAZINE,8-Me] ?
RESULT: 550 nM

----------
Molecular target: Alpha-1A adrenergic receptor (Rattus norvegicus, UniProt P43140)
Sequence (P43140 whole entry): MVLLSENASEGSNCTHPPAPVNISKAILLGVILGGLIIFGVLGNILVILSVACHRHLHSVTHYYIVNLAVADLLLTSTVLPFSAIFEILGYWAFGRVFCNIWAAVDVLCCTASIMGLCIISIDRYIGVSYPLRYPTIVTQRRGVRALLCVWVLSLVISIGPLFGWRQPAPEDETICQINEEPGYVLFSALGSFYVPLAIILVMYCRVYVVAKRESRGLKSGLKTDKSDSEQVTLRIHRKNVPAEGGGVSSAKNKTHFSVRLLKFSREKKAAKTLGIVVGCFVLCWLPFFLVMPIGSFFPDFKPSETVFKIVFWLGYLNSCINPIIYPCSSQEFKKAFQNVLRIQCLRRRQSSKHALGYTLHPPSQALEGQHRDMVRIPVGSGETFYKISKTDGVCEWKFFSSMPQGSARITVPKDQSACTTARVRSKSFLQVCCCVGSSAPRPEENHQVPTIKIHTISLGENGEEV
measuredAttribute: Ki

QUERY: Provide value of Ki for this record tested with Alpha-1A adrenergic receptor (Rattus norvegicus, UniProt P43140): Cc1cccc2ccc(N3CCNCC3)nc12
RESULT: > 10 µM

----------
target: Solute carrier family 22 member 2 (Rattus norvegicus)
Sequence (Q9R0W2 whole entry): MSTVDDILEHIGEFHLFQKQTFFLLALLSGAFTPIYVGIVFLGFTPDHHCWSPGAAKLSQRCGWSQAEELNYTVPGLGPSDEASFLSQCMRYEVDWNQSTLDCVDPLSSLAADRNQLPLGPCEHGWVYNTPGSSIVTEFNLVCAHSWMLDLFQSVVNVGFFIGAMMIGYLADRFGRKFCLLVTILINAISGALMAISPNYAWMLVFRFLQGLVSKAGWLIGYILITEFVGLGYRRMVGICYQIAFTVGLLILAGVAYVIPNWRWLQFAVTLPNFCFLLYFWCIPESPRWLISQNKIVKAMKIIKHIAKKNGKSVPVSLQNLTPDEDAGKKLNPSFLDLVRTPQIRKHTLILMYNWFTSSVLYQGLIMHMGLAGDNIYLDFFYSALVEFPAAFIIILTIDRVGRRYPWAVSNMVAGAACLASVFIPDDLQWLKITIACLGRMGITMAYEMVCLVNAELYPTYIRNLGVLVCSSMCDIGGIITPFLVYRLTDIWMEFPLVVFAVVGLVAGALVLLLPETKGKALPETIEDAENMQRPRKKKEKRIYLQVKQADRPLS
measuredAttribute: Ki (µM)
// note: answer is a bare numeric in µM

QUERY: For the compound shown here, c1ccc2nc(N3CCNCC3)ccc2c1 , give the reported Ki.
RESULT: 5

----------
biological target: 5-hydroxytryptamine receptor 3A (Rattus norvegicus, UniProt P35563)
Sequence (P35563 whole entry): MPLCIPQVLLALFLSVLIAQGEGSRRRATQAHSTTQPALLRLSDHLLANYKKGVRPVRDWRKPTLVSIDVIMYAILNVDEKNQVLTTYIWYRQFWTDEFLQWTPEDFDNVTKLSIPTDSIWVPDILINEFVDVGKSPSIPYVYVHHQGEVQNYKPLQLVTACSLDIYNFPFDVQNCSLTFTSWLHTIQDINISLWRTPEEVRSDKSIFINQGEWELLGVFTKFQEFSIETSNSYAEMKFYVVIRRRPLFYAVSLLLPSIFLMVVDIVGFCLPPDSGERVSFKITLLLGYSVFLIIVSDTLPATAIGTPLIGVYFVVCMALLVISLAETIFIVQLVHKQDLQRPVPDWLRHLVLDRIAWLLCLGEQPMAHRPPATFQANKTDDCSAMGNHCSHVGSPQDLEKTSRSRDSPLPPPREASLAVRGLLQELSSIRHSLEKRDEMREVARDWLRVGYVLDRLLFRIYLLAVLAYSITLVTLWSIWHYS
pKi: −log10 of the molar value.
Use 8 as the dividing line for pKi, with the line itself on the yes side and lower values as no.

QUERY: Is pKi at least 8? Consider Clc1cncc(N2CCNCC2)n1 [L-630,571]
RESULT: no

QUERY: And Clc1ccc(N2CCNCC2)cc1 ?
RESULT: no

QUERY: And CN(C)C[C@@H]1C2CCC(CC2)[C@@H]1c1ccc(Cl)c(Cl)c1 [NSC_398] ?
RESULT: no

QUERY: And c1ccc2c(N3CCNCC3)cccc2c1 ?
RESULT: no

QUERY: And c1ccc2nc(N3CCNCC3)ccc2c1 [2-Piperazin-1-yl-quinoline (Quipazine)] ?
RESULT: yes

QUERY: And CN1CCN(c2nc3ccccc3c(=O)[nH]2)CC1 [NSC_63211] ?
RESULT: no

QUERY: And Clc1cccc(N2CCNCC2)c1 [mCPP] ?
RESULT: no

QUERY: And c1ccc(C2CCNCC2)cc1 ?
RESULT: no

QUERY: And COc1ccc(N2CCNCC2)cc1 [4-METHOXYPHENYLPIPERAZINE] ?
RESULT: no

QUERY: And COc1ccccc1N1CCNCC1 ?
RESULT: no

QUERY: And Cc1cccc2ccc(N3CCNCC3)nc12 [QUIPAZINE,8-Me] ?
RESULT: yes

QUERY: And COc1cccc2ccc(N3CCN(C)CC3)nc12 [8-Methoxy-N-methylquipazine] ?
RESULT: no
